- System Under Test: papain (Carica papaya)
- Construct: purchased Sigma Chem. Co
- Test: Papain inhibitory activity (milk casein digestion)
- Type: biochemical
- Measurement Conditions: papain 80 μg/ml 0.5 ml, cysteine, pH 6.8, 1% milk casein, 40° C., 10 minutes
Parameter: ID50 (amount of inhibitor for 50% inhibition)

>>> df
                                   compound       system_under_test      val
0  CCOC(=O)[C@H]1O[C@@H]1C(=O)NCCC(=O)OCc1ccccc1 (relative stereo) [EP-157]  papain (Carica papaya)  71.50 γ
1  CCOC(=O)C1OC1C(=O)N[C@@H](CCCNC(=O)c1ccccc1)C(=O)OCc1ccccc1 (stereo partly shown) [EP-173]  papain (Carica papaya)   5.80 γ
2  C[C@@H]1CCCC[C@H]1OC(=O)[C@@H]1O[C@H]1C(=O)O[C@@H]1CCCC[C@H]1C (relative stereo) [EP-5]  papain (Carica papaya)   2.36 γ
3  O=C(OCc1ccc(I)cc1)[C@@H]1O[C@H]1C(=O)OCc1ccc(I)cc1 (relative stereo) [EP-111, di-p-iodobenzyl epoxysuccinate]  papain (Carica papaya)   2.91 γ

----------
- System Under Test: papain (Carica papaya, UniProt P00784)
- Construct: purchased Sigma Chem. Co
- Sequence (P00784 134-345): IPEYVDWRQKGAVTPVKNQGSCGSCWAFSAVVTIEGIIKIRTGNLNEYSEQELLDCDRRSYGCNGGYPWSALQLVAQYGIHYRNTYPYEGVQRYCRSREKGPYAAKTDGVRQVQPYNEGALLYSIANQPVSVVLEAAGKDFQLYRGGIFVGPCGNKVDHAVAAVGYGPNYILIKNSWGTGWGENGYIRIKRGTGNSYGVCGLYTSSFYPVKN
- Test: Papain inhibitory activity (milk casein digestion)
- Format: biochemical
- Measurement Conditions: papain 80 μg/ml 0.5 ml, cysteine, pH 6.8, 1% milk casein, 40° C., 10 minutes
Parameter: ID50 (amount of inhibitor for 50% inhibition)

                                    compound      val
 0  CC1CCCC(C)C1OC(=O)C1OC1C(=O)OC1C(C)CCCC1C (stereo not shown)   2.50 γ
 1  O=C(OCC1CCCO1)[C@@H]1O[C@H]1C(=O)OCC1CCCO1 (relative stereo)   1.65 γ
 2  O=C(OC1CCC(Br)C(Cl)C1)C1OC1C(=O)OC1CCC(Br)C(Cl)C1 (stereo not shown)   2.46 γ
 3  N=C(N)NCCC[C@H](NC(=O)C1OC1C(=O)O)C(=O)O (stereo partly shown)  21.93 γ
 4  CC(C)(C)OC(=O)[C@H](Cc1ccccc1)NC(=O)C1OC1C(=O)OCC1CCCO1 (stereo partly shown)   1.65 γ
 5  O=C(O)[C@@H]1O[C@H]1C(=O)OCCCC1CCCCC1 (relative stereo)   0.08 γ
 6  O=C(O)[C@@H]1O[C@H]1C(=O)OCc1c(Cl)ccc2ccccc12 (relative stereo)   0.29 γ
 7  O=C(OCC=Cc1ccccc1)[C@H]1O[C@@H]1C(=O)OCC=Cc1ccccc1 (relative stereo) [EP-133, di-3'-phenyl-2'-propenyl epoxysuccinate]   2.81 γ
 8  O=C(O[C@@H]1CCC[C@H]1Br)[C@@H]1O[C@H]1C(=O)O[C@@H]1CCC[C@H]1Br (relative stereo)   3.20 γ
 9  CC(C)OC(=O)C1OC1C(=O)N[C@@H](CCCCNC(=O)OCc1ccccc1)C(=O)OCc1ccccc1 (stereo partly shown)   9.76 γ
10  C[C@@H]1CCCC[C@H]1OC(=O)[C@@H]1O[C@H]1C(=O)O (relative stereo)   0.09 γ
11  CC(C)[C@H](NC(=O)C1OC1C(=O)OC1CCCC1)C(=O)OCc1ccccc1 (stereo partly shown)   0.82 γ
12  CCOC(=O)C1OC1C(=O)N[C@@H](CO)C(=O)OCC (stereo partly shown)  23.15 γ
13  O=C(O)[C@H]1O[C@@H]1C(=O)OCc1ccc(Br)cc1 (relative stereo) [EP-114, p-bromobenzyl potassium epoxysuccinate]   0.26 γ
14  Cc1cc(C)cc(COC(=O)[C@@H]2O[C@H]2C(=O)O)c1 (relative stereo)   0.27 γ
15  O=C(OCC1CC=CCC1)C1OC1C(=O)OCC1CC=CCC1 (stereo not shown) [EP-69, di-3-cyclohexenemethyl epoxysuccinate]   0.23 γ

----------
- System Under Test: papain (Carica papaya, UniProt P00784)
- Construct: purchased Sigma Chem. Co
- Sequence (P00784 134-345): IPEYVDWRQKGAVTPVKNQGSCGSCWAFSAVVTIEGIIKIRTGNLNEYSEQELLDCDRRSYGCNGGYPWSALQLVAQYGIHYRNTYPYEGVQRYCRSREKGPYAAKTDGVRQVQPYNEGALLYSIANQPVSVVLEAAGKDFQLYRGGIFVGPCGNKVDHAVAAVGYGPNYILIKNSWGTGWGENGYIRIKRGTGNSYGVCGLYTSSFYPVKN
- Test: Papain inhibitory activity (milk casein digestion)
- Assay type: biochemical
- Measurement Conditions: papain 80 μg/ml 0.5 ml, cysteine, pH 6.8, 1% milk casein, 40° C., 10 minutes
Parameter: ID50 (amount of inhibitor for 50% inhibition)

>>> df
                                    compound                       system_under_test      val
 0  O=C(OCc1cccc(Cl)c1)[C@@H]1O[C@H]1C(=O)OCc1cccc(Cl)c1 (relative stereo) [EP-109, di-m-chlorobenzyl epoxysuccinate]  papain (Carica papaya, UniProt P00784)   0.50 γ
 1  O=C(CCNC(=O)[C@@H]1O[C@H]1C(=O)OCCCCC1CCCCC1)OCc1ccccc1 (relative stereo)  papain (Carica papaya, UniProt P00784)  13.12 γ
 2  Cc1ccc(COC(=O)[C@@H]2O[C@H]2C(=O)OCc2ccc(C)cc2)cc1 (relative stereo) [EP-89, di-p-methylbenzyl epoxysuccinate]  papain (Carica papaya, UniProt P00784)   1.39 γ
 3  O=C(O)[C@@H]1O[C@H]1C(=O)OC1CC2CCC1CC2 (relative stereo)  papain (Carica papaya, UniProt P00784)   0.07 γ
 4  O=C(O)[C@H]1O[C@@H]1C(=O)OCc1cccc(F)c1 (relative stereo) [EP-122, m-fluorobenzyl potassium epoxysuccinate]  papain (Carica papaya, UniProt P00784)   0.10 γ
 5  O=C(OCCCC1CCCCC1)[C@@H]1O[C@H]1C(=O)OCCCC1CCCCC1 (relative stereo) [EP-65, di-3-cyclohexanepropyl epoxysuccinate]  papain (Carica papaya, UniProt P00784)  69.44 γ
 6  CC(OC(=O)C1OC1C(=O)OC(C)C1CCCC1)C1CCCC1 (centres unmarked) [EP-45, di-1-cyclopentaneethyl epoxysuccinate]  papain (Carica papaya, UniProt P00784)   0.23 γ
 7  O=C(O)[C@H]1O[C@@H]1C(=O)OCc1ccc(I)cc1 (relative stereo) [EP-112, p-iodobenzyl potassium epoxysuccinate]  papain (Carica papaya, UniProt P00784)   0.32 γ
 8  O=C(OC1CCCCCCC1)[C@@H]1O[C@H]1C(=O)OC1CCCCCCC1 (relative stereo) [EP-35, dicyclooctyl epoxysuccinate]  papain (Carica papaya, UniProt P00784)   0.98 γ
 9  CCOC(=O)C1OC1C(=O)N[C@@H](CCC(=O)OCc1ccccc1)C(=O)OCc1ccccc1 (some centres unmarked)  papain (Carica papaya, UniProt P00784)  13.80 γ
10  O=C(O)[C@@H]1O[C@H]1C(=O)OCc1cccc2ccccc12 (relative stereo)  papain (Carica papaya, UniProt P00784)   0.34 γ
11  COC(=O)[C@H](CCCNC(=O)OCc1ccccc1)NC(=O)C1OC1C(=O)[O-].[K+] (some centres unmarked)  papain (Carica papaya, UniProt P00784)   0.15 γ
12  CCOC(=O)[C@H](Cc1ccccc1)NC(=O)C1OC1C(=O)OC1C2CC3CC(C2)CC1C3 (some centres unmarked)  papain (Carica papaya, UniProt P00784)   1.12 γ
13  O=C(OC1CC(Cl)CCC1Br)C1OC1C(=O)OC1CC(Cl)CCC1Br (centres unmarked)  papain (Carica papaya, UniProt P00784)   2.50 γ

----------
- System Under Test: papain (Carica papaya, UniProt P00784)
- Construct: purchased Sigma Chem. Co
- Sequence (P00784 134-345): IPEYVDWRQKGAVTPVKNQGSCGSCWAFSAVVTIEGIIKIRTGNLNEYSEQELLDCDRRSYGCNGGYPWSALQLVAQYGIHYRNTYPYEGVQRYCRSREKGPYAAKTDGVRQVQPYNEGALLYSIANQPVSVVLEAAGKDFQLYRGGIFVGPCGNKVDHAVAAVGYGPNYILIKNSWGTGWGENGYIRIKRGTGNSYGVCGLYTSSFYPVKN
- Test: Papain inhibitory activity (milk casein digestion)
- Format: biochemical
- Measurement Conditions: papain 80 μg/ml 0.5 ml, cysteine, pH 6.8, 1% milk casein, 40° C., 10 minutes
Parameter: ID50 (amount of inhibitor for 50% inhibition)

>>> df
                                   compound      val
0  Cc1cccc2c(COC(=O)[C@@H]3O[C@H]3C(=O)O)ccc(C)c12 (relative stereo)   0.32 γ
1  O=C(OC1CC2C=CC1C2)C1OC1C(=O)OC1CC2C=CC1C2 (stereo not shown) [EP-57, dinorbor-5-en-2-yl epoxysuccinate]   0.26 γ
2  CC(C)OC(=O)[C@H]1O[C@@H]1C(=O)O (relative stereo) [EP-139, i-propyl potassium epoxysuccinate]   0.78 γ
3  O=C(NCCCC[C@H](NC(=O)C1OC1C(=O)OC1CC1)C(=O)OCc1ccccc1)OCc1ccccc1 (stereo partly shown)  15.20 γ

Reference source for all entries: patent US4393228A
